Listing of entries alongside the reported self-cleavage.
B1: Osa-1-4 twister ribozyme (parent)
chain: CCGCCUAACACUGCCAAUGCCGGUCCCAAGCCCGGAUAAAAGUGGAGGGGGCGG

variants of: B1; experiment: self-cleavage, relative activity (ratio to wild type); higher = more cleavage; co-transcriptional

# Mutant Id, self-cleavage
data = [
    ("C20A G48C", 0.07),
    ("C32A G49C", 0.03),
    ("C52A", 1.02),
    ("A40G C20G", 0.1),
    ("A7G G53U", 0.1),
    ("C14G G44A", 0.23),
    ("A8G G13C", 0.03),
    ("C14A C27G", 0.03),
    ("C9U G30C", 0.03),
    ("C9A G47U", 0.03),
    ("C31U G44U", 0.51),
    ("A16C G47C", 0.05),
    ("G19A U18G", 1.01),
    ("C21A G22U", 0.1),
    ("C32A G22C", 0.03),
    ("A28C C33G", 0.07),
    ("A39G A40C", 0.05),
    ("C32A C9U", 0.05),
    ("A38G G19A", 0.46),
    ("G13U G47A", 0.02),
    ("C14G C9G", 0.16),
    ("G47C G54U", 0.24),
    ("C11A C25A", 0.11),
    ("A17G G44U", 0.74),
    ("G44C G49C", 0.07),
    ("C15G U37A", 0.45),
    ("A16C C21A", 0.45),
    ("A46C U18C", 0.06),
    ("C11A G19A", 0.11),
    ("A17U C11U", 0.86),
    ("C33A G22U", 0.93),
    ("G19C G53A", 0.06),
    ("A10G C32G", 0.15),
    ("A16C A41C", 0.74),
    ("A7C A8G", 0.05),
    ("C9G G23A", 0.24),
    ("G23U U24G", 0.02),
]
